Some molecules, each annotated with its measured melting point.

Take a look at these entries with their results.
# molecule, melting point
measured = [
    ("Nc1ccc(F)c(C(=O)Nc2ccccc2)c1", "120 to 122 °C"),
    ("COc1ccccc1[C@@]1(O)[C@H](O)CC(c2ccccc2)(c2ccccc2)[C@@H]2CN(C(=O)Cc3ccc(N)cc3)C[C@@H]21 (racemic)", "188 °C"),
    ("COC(=O)C(=NOCc1ccccc1)C(C)=O", "35 to 36 °C"),
]

input: Please look up its melting point: `CC(=O)NC[C@H]1CN(c2cc(F)c(N3CCC(n4nnc(N5CCN(Cc6ccccc6)CC5)n4)CC3)c(F)c2)C(=O)O1`
output: 188 to 190 °C

input: What do you have for `O=C(CCCBr)Nc1ccc(O)cc1` ?
output: 142 to 144 °C

input: What do you have for `CC(C)(C)NS(=O)(=O)c1cccc(NC(=O)c2cnn3c(C(F)(F)F)cc(-c4ccc(C(F)(F)F)cc4)nc23)c1` ?
output: 232 °C

* * *

Some compounds, each annotated with its measured melting point.

Take a look at these entries with their results.
# compound, melting point
rows = [
    ("Cc1c[nH]c2ccc(C#N)cc12", "110 to 112 °C"),
    ("CC(C)C(NS(=O)(=O)c1ccc(Cl)cc1)C(=O)Nc1ccc(CC(=O)O)cc1 (racemic)", "228 to 230 °C"),
    ("CC1CC(C)CN(CCNC(=O)Nc2ccccc2)C1 (centres undefined)", "189 to 191 °C"),
]

input: Please look up its melting point: `CCOC(=O)c1ccc(OCC2=CCN(c3ccc(Cl)nn3)CC2)cc1`
output: 162 °C

input: What do you have for COc1cc(C=C(N)C(C)=O)ccc1OCC1CO1 (centres undefined) ?
output: 173 to 174 °C

input: What do you have for `O=C(OCCc1noc(-c2ccc(CN3CCCCCC3)s2)n1)c1ccccc1` ?
output: 121 to 123 °C

input: What do you have for COc1ccc(C2CCc3ccccc3C2O)cc1 (centres undefined) ?
output: 89 to 90.5 °C

* * *

assayReadout: melting point

Take a look at these entries with their results.
# compound, melting point
rows = [
    ("CC1NC(=O)NN=C1c1ccc(S(N)(=O)=O)cc1 (stereo not given)", "259 to 264 °C"),
    ("Brc1ccc(Cc2cc3ccccc3[nH]2)cc1", "136 °C"),
    ("CCC(=O)N(CC)c1cccc(C(=O)C=CN(C)C)c1", "105 to 107 °C"),
]

input: Please look up its melting point: `CNc1cn(-c2cncc(F)c2)nc1C1CC1`
output: 118 to 120 °C

input: What do you have for CC(OCc1ccc(-c2ccc(Cl)cc2)cc1)(C(=O)O)c1ccccc1 (stereo not given) ?
output: 125 to 126 °C

input: What do you have for `COC(=O)NN=Cc1nc(-c2cccc(C)c2)[nH]c1C` ?
output: 162 to 164 °C

input: What do you have for `O=C(Cl)N1CCC(N2CCCCC2)CC1` ?
output: 63.8 °C

input: What do you have for N#CC(c1ccc([N+](=O)[O-])cc1)c1ccc(Cl)cc1Cl (stereo not given) ?
output: 81 to 82.5 °C

* * *

Some molecules, each annotated with its measured melting point.

input: Please look up its melting point: `COCCCNC(N)=O`
output: 128 to 130 °C

input: What do you have for `COc1ccc(-n2nc(Sc3ccc(C(C)C)cc3)c(C)c(C#N)c2=O)cc1` ?
output: 141 to 144 °C

* * *

Some compounds, each annotated with its measured melting point.

input: Please look up its melting point: O=C1NC(=O)C2c3cccc4cccc(c34)C12 (centres undefined)
output: 242 to 246 °C

input: What do you have for `CC(=O)c1ccc(NC(=O)c2ccc(-c3ccccc3)cc2)cc1` ?
output: 283 to 285 °C

input: What do you have for CCOC(=O)c1cc(CCCOCCCCCCNCC(O)c2cc(Cl)c(N)c(Cl)c2)ccn1 (centres undefined) ?
output: 68 to 70 °C

input: What do you have for `C#CCn1c(C(F)(F)F)nc2cc(F)c(-n3c(=O)cc(C(F)(F)F)n(C)c3=O)cc21` ?
output: 104 to 105 °C

input: What do you have for `CCOC(=O)CSc1cc(Cl)nc(Nc2cccc(C)c2C)n1` ?
output: 114 to 116 °C

input: What do you have for O=C1NC(C(Cl)(Cl)Cl)Nc2ccccc21 (centres undefined) ?
output: 201 to 202 °C

input: What do you have for `NC(=O)CCCCCc1cccc2cncn12` ?
output: 131 to 132 °C

input: What do you have for `COc1cccc(Oc2cccc(-c3cccc(C(=O)NCCC#N)c3)n2)c1` ?
output: 85 to 86 °C

input: What do you have for `COc1cc(C=C(C(=O)O)c2ccc(O)cc2)cc(OC)c1` ?
output: 135 to 137 °C

* * *

Some compounds, each annotated with its measured melting point.

Take a look at these entries with their results.
# compound, melting point
records = [
    ("CCSc1ccc(OC(C)c2ccnc3ncnn23)cc1 (stereo not given)", "65 to 67 °C"),
    ("Nc1nc(-c2cc(-c3c(F)cccc3Cl)no2)cs1", "168 to 169 °C"),
    ("CN(C)S(=O)(=O)N(c1ccc(C(=O)Nc2ccc(Br)cc2)cc1)C1OC(=O)c2ccccc21 (stereo not given)", "244 to 246 °C"),
    ("CC(=O)OC1CCC2(C)C3=CCC4(C)C(C(C)=O)CCC4C3CCC2C1 (stereo not given)", "163 to 165 °C"),
    ("CCCN(C)CCCN1CCN(c2cc(-c3ccnc(NCc4cccc(OC)c4)n3)cc3ccc(OC)cc23)CC1", "156 to 160 °C"),
]

input: Please look up its melting point: `C#CCCCCOc1cc(/C=C/C(=O)Nc2ccccc2C(=O)O)ccc1OC`
output: 135 to 137 °C

input: What do you have for CCc1ccc2c(c1)OC1(O)c3cccc([N+](=O)[O-])c3C(=O)C21O (stereo not given) ?
output: 110 to 120 °C

* * *

Some compounds, each annotated with its measured melting point.

Take a look at these entries with their results.
# compound, melting point
records = [
    ("Cc1nc(-c2cc(Cl)ccc2Cl)n2c1nnc1ccc(-c3cc(Cl)ccc3Cl)cc12", "190 to 193 °C"),
    ("O=C(C=Cc1ccccc1)Oc1ccccc1", "114 to 116 °C"),
]

input: Please look up its melting point: COc1c(CC#N)c2c(c3c1OC(C)(C)C3)C(c1cccc(C(=O)NC3CCCCNC3=O)c1)=NC(C)(C)C2 (stereo not drawn)
output: 130 to 132 °C

input: What do you have for `Cc1nnc2ccc(-c3ccccc3Cl)nn12` ?
output: 146 to 148 °C

input: What do you have for `Cc1sc(-c2ccccc2)nc1CN(C)[C@H]1CC[C@H](c2ccc3[nH]c(=O)oc3c2)CC1` ?
output: 246 to 248 °C

input: What do you have for `COc1ccc(S(=O)(=O)Nc2ccc(F)cc2Nc2ccccc2)cc1` ?
output: 173 to 174 °C

input: What do you have for `Cc1ccc(-c2cc(C(F)(F)F)n3ncc(-c4ccncc4)c3n2)cc1C(F)(F)F` ?
output: 218 °C

input: What do you have for CC(O)c1ccc(NS(C)(=O)=O)c(Sc2ccc(F)cc2F)c1 (stereo not drawn) ?
output: 118 to 120 °C

* * *

assayReadout: melting point

Take a look at these entries with their results.
# compound, result
data = [
    ("CSCC(=O)[C@H](CCc1ccccc1)NC(=O)[C@H](CC(C)C)NC(=O)OCc1ccccc1", "119 to 120 °C"),
    ("CCC(=O)NC(C)OC (stereo not given)", "29 to 32 °C"),
    ("O=C1N(C23CC4CC(CC(C4)C2)C3)CCC1(Cc1ccncc1)Cc1ccncc1", "164 to 165 °C"),
    ("CC(CNc1ccc(Cl)cc1[N+](=O)[O-])OS(C)(=O)=O (stereo not given)", "106 to 108 °C"),
    ("O=C1N(CCN(c2ccccn2)c2ccccn2)c2ccccc2C12COc1cc3c(cc12)OCO3 (stereo not given)", "165 to 167 °C"),
    ("CCOC(=O)c1sc2[nH]c(C(=O)c3ccccc3)cc2c1C", "180 to 181 °C"),
]

input: Please look up its melting point: `CCOCCc1c(N=[N+]=[N-])nc(NC(=O)NCC(=O)O)nc1-c1ccccc1`
output: 160 °C

input: What do you have for `CC(C)(C)c1cc(C=C2SCN(CCN)C2=O)cc(C(C)(C)C)c1O` ?
output: 176 to 178 °C

input: What do you have for `Cc1nccn1-c1cccc(Nc2ccc(I)cc2[N+](=O)[O-])c1` ?
output: 135 to 136 °C
